subject-of-test: T1, hCD112R mFC recombinant protein (human; murine, UniProt Q6DKI7 41-160)
T1 construct: range 41-160; expressed in 293E cells; also called hCD112R ECD mFC; hCD112R-ECD-mFC; not shown: murine IgG2a Fc domain (MX2-mFc vector)
T1 sequence (looked up): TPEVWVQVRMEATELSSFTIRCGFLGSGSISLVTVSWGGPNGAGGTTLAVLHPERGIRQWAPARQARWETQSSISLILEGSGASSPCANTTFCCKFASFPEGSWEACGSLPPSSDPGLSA
assay-text: FACS competition, hCD112R mFc on CHO CD112 cells; IC50 COM701/IC50 antibody
Binary call on Relative activity (%): met from 90% upward, not met beneath that.

{"columns": ["binder", "assigned-category"],
 "data": [
  ["Hu51 (antibody, IgG4, V domains shown, humanized IgG4) VH: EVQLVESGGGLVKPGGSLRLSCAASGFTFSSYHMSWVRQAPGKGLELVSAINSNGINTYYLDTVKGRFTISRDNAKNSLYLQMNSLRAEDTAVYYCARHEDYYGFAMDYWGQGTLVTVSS VL: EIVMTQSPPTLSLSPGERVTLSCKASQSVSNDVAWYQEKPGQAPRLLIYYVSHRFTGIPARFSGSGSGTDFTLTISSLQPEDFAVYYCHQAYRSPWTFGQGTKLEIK", "not met"],
  ["Hu12 (antibody, IgG4, V domains shown, humanized IgG4) VH: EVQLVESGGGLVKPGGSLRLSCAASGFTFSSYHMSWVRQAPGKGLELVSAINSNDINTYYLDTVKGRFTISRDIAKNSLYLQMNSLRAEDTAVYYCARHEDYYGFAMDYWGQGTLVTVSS VL: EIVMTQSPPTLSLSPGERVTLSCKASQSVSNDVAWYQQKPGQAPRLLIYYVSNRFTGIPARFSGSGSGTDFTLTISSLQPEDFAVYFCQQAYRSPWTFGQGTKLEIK", "met"],
  ["Hu8 (antibody, IgG4, V domains shown, humanized IgG4; also called Hu-08) VH: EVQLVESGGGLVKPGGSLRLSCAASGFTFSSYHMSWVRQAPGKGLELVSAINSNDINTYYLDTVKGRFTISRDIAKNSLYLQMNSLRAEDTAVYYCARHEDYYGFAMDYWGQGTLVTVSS VL: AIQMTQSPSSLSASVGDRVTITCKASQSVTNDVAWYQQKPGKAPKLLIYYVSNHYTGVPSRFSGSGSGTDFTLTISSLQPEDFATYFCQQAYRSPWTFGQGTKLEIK", "not met"]
]}

Exam item: decide whether the reported Relative activity (%) for Hu34 (antibody, IgG4, V domains shown, humanized IgG4) VH: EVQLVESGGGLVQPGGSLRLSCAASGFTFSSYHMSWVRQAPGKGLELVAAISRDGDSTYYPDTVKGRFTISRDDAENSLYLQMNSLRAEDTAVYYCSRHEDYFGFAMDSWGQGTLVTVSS VL: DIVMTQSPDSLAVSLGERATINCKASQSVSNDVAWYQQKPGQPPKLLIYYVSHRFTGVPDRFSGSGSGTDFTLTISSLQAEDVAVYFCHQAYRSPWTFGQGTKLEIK is at least 90%. met
